# key: entry, value: melting point

// known answers, use as guide
O=C(Nc1ccc(OCc2ccncc2)c2ccccc12)c1cc(F)cc(OC2CCOCC2)c1 | 182 to 184 °C
CC(C)(C)OC(=O)NNCCC12CC3CC(CC(C3)C1)C2 | 73.5 to 81 °C
c1cn2nc(N3CCCC3)c3c(c2n1)CCCC3 | 128 °C
CCN(CC)Cc1cc(C(=O)c2ccc(Cl)cc2)cc(C(C)(C)C)c1O | 95 to 96.5 °C

As a next step, examine the compound that follows.
Data request: Consider the compound CN(CCOc1ccc(CC2SC(=O)NC2=O)cc1)c1ncccn1 (stereo not given) and give its measured melting point.
Data returned: 150 to 151 °C
